FYI, the data here is from patent US10030027B2.

- Target Or Test System: sGC α1/β1 heterodimer (Homo sapiens (Human), UniProt Q02108+Q02153)
- Sequence (Q02108 whole entry): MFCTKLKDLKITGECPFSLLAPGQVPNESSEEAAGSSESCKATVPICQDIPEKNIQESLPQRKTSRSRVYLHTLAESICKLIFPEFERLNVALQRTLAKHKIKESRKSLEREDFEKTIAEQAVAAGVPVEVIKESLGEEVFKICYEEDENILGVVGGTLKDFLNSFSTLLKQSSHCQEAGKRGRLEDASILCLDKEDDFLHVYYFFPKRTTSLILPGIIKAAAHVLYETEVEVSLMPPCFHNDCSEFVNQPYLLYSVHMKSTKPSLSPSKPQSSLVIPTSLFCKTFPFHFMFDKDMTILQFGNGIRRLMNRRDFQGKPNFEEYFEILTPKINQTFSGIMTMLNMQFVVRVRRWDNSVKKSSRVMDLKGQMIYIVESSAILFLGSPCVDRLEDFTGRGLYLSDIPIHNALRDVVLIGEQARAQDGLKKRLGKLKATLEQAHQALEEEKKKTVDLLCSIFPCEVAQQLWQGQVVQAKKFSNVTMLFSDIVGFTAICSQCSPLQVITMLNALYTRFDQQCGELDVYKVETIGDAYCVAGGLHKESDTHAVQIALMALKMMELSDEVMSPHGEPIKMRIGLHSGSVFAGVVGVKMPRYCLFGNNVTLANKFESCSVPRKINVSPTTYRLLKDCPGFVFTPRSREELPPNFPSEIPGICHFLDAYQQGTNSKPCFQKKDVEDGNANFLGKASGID
- Sequence (Q02153 whole entry): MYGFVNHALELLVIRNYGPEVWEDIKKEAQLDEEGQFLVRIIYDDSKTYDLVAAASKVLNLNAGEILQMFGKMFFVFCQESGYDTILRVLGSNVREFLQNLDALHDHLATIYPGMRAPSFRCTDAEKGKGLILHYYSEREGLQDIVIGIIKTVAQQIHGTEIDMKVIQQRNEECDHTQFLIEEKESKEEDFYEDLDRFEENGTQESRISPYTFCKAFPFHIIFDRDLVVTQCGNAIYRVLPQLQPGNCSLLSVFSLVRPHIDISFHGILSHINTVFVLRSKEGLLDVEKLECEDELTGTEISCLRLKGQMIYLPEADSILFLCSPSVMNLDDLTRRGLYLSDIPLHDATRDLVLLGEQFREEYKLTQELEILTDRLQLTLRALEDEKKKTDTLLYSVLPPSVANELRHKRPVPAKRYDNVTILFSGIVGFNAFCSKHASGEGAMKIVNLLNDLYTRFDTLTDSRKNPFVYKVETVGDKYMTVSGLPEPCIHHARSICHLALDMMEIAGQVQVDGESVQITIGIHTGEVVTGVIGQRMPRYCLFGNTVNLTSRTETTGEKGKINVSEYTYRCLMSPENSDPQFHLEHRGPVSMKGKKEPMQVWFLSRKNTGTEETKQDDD
- Assay Remarks: Cell-based sGC functional assay (cyclic GMP assay for sGC activator: CASA assay)
- Experimental Conditions: inflection point, 4P fit; CHO-K1/sGC cells; read-out: IP
Endpoint Name: pEC50
The scale used: pEC50 is minus the common logarithm of the concentration in molar units.

Example compounds with recorded pEC50:
Request the reported pEC50 associated with CC(C)(Cc1coc(C2(C)C(=O)Nc3nc(-c4nn(CC5CCCC5)c5ncccc45)nc(N)c32)n1)C(=O)O (stereo not drawn) [Example 154A] 6.24

Request the reported pEC50 associated with CC(C)(Cc1coc(C2(C)C(=O)Nc3nc(-c4nn(Cc5ccc(F)cc5)c5cc(Cl)ccc45)nc(N)c32)n1)C(=O)O (stereo not drawn) [Example 173A] 6.25

Now examine the next entry.
Request the reported pEC50 associated with CC1(c2ccc(CCCC(=O)O)cc2)C(=O)Nc2nc(-c3nn(CCC(F)(F)C(F)(F)F)c4ncccc34)nc(N)c21 (stereo not drawn) [Example 116A] 6.22

###

- Target Or Test System: sGC α1/β1 heterodimer (Homo sapiens (Human), UniProt Q02108+Q02153)
- Assay Remarks: Cell-based sGC functional assay (cyclic GMP assay for sGC activator: CASA assay)
- Experimental Conditions: CHO-K1, activity expressed as percentage of compound A (standard); CHO-K1/sGC cells; read-out: % Activation
Endpoint Name: Emax (%)
Write the answer as a number in %, unit excluded.

Example compounds with recorded Emax:
Request - read-out Emax | tested on sGC α1/β1 heterodimer (Homo sapiens (Human), UniProt Q02108+Q02153) | compound C[C@@]1(c2nc(CCC(=O)O)cs2)C(=O)Nc2nc(-c3nn(CCCC(F)(F)F)c4ncccc34)nc(N)c21 [Example 88B] 88

Request - read-out Emax | tested on sGC α1/β1 heterodimer (Homo sapiens (Human), UniProt Q02108+Q02153) | compound CC(C)(Cc1csc([C@]2(C)C(=O)Nc3nc(-c4nn(CC5CCCCC5)c5ncccc45)nc(N)c32)n1)C(=O)O (single isomer, unassigned) [Example 151A] 131

Request - read-out Emax | tested on sGC α1/β1 heterodimer (Homo sapiens (Human), UniProt Q02108+Q02153) | compound CC(C)(Cc1ccc(C2(C)C(=O)Nc3nc(-c4nn(CCC(F)(F)C(F)(F)F)c5cc(Cl)ccc45)nc(N)c32)cc1)C(=O)O (centres unmarked) [Example 33B] 100

Request - read-out Emax | tested on sGC α1/β1 heterodimer (Homo sapiens (Human), UniProt Q02108+Q02153) | compound CC(C)(Cc1csc([C@]2(C)C(=O)Nc3nc(-c4nn(Cc5ccccc5F)c5cc(F)ccc45)nc(N)c32)n1)C(=O)O [Example 62A] 148

Now examine the next entry.
Request - read-out Emax | tested on sGC α1/β1 heterodimer (Homo sapiens (Human), UniProt Q02108+Q02153) | compound C[C@@]1(c2ccc(CCC(=O)O)cc2)C(=O)Nc2nc(-c3nn(Cc4ncccc4F)c4ccccc34)nc(N)c21 [Example 232B] 89.1

###

- Target Or Test System: sGC α1/β1 heterodimer (Homo sapiens (Human), UniProt Q02108+Q02153)
- Assay Remarks: Cell-based sGC functional assay (cyclic GMP assay for sGC activator: CASA assay)
- Experimental Conditions: CHO-K1, activity expressed as percentage of compound A (standard); CHO-K1/sGC cells; read-out: % Activation
- Protocol: Cell-Based sGC Functional Assay (Cyclic GMP Assay for sGC Activator: CASA Assay) Soluble guanylate cyclase (sGC) is a heme-containing enzyme that converts GTP to secondary messenger cGMP. […] A CHO-K1 cell line stably expressing the sGC α1/β1 heterodimer was generated using a standard transfection protocol. […] The level of intracellular cGMP was determined using an HTRF-based assay kit (CisBio, 62GM2PEC), which detects the displacement of a fluorescence labeled cGMP from its specific antibody. […]
Emax by entry:
Answer format: value, then unit.

Request the reported Emax associated with C[C@@]1(c2ccc(CCC(=O)NS(C)(=O)=O)cc2)C(=O)Nc2nc(-c3nn(Cc4ccccc4F)c4cc(Cl)ccc34)nc(N)c21 [Example 259B] 116%

Request the reported Emax associated with CCCCn1nc(-c2nc(N)c3c(n2)NC(=O)C3(C)c2cn(CC(=O)O)nn2)c2ccc(Cl)cc21 (centres unmarked) [Example 35B] 102%

Request the reported Emax associated with C[C@@]1(c2ccc(CCC(=O)O)cc2)C(=O)Nc2nc(-c3nn(CCCC(F)(F)F)c4cc(Cl)ccc34)nc(N)c21 [Example 41B] 85%

Request the reported Emax associated with C[C@H](O)[C@@H](NC(=O)CCc1ccc([C@]2(C)C(=O)Nc3nc(-c4nn(Cc5ccccc5F)c5ncccc45)nc(N)c32)cc1)C(=O)O [Example 107B] 113%

Request the reported Emax associated with CC1(c2cccc(C(=O)O)c2)C(=O)Nc2nc(-c3nn(CCC(F)(F)C(F)(F)F)c4cc(Cl)ccc34)nc(N)c21 (centres unmarked) [Example 26B] 102%

Request the reported Emax associated with CC(C)(Cc1coc(C2(C)C(=O)Nc3nc(-c4nn(Cc5cccc(F)c5)c5ccccc45)nc(N)c32)n1)C(=O)O (centres unmarked) [Example 223A] 119%

Request the reported Emax associated with CC(C)(C)CCCn1nc(-c2nc(N)c3c(n2)NC(=O)[C@@]3(C)c2ccc(CCC(=O)O)cc2)c2ccc(Cl)cc21 [Example 52B] 109%

Request the reported Emax associated with CC1(c2cn(CC3(C(=O)O)CC3)nn2)C(=O)Nc2nc(-c3nn(CCC(F)(F)C(F)(F)F)c4cc(Cl)ccc34)nc(N)c21 (centres unmarked) [Example 32B] 79%

Request the reported Emax associated with CC(C)(Cc1coc(C2(C)C(=O)Nc3nc(-c4nn(CC5CCCC5)c5cc(Cl)ccc45)nc(N)c32)n1)C(=O)O (centres unmarked) [Example 161A] 121%

Request the reported Emax associated with Cc1sc(C2(C)C(=O)Nc3nc(-c4nn(CCC(F)(F)C(F)(F)F)c5cc(Cl)ccc45)nc(N)c32)nc1-c1ccc(C(=O)O)cc1 (centres unmarked) [Example 94B] 108%

Now examine the next entry.
Request the reported Emax associated with CC(C)(Cc1coc(C2(C)C(=O)Nc3nc(-c4nn(Cc5cccc(F)c5)c5ncccc45)nc(N)c32)n1)C(=O)O (centres unmarked) [Example 150A] 102%

###

- Target Or Test System: sGC α1/β1 heterodimer (Homo sapiens (Human), UniProt Q02108+Q02153)
- Assay Remarks: Cell-based sGC functional assay (cyclic GMP assay for sGC activator: CASA assay)
- Experimental Conditions: inflection point, 4P fit; CHO-K1/sGC cells; read-out: IP
- Method: Cell-Based sGC Functional Assay (Cyclic GMP Assay for sGC Activator: CASA Assay) Soluble guanylate cyclase (sGC) is a heme-containing enzyme that converts GTP to secondary messenger cGMP. […] A CHO-K1 cell line stably expressing the sGC α1/β1 heterodimer was generated using a standard transfection protocol. […] The level of intracellular cGMP was determined using an HTRF-based assay kit (CisBio, 62GM2PEC), which detects the displacement of a fluorescence labeled cGMP from its specific antibody. […]
Endpoint Name: EC50 (nM)
Write the answer as a number in nM, unit excluded.

Example compounds with recorded EC50:
Request the reported EC50 associated with C[C@@]1(c2ccc(CCc3nn[nH]n3)cc2)C(=O)Nc2nc(-c3nn(CCC(F)(F)C(F)(F)F)c4cc(Cl)ccc34)nc(N)c21 (single isomer, unassigned) [Example 237B] 5870

Request the reported EC50 associated with C[C@@]1(c2ccc(CCC(=O)O)cc2)C(=O)Nc2nc(-c3nn(CCCC(F)(F)F)c4nc(Cl)ccc34)nc(N)c21 [Example 19B] 1040

Request the reported EC50 associated with C[C@@]1(c2ccc(CCC(=O)NCC(=O)O)cc2)C(=O)Nc2nc(-c3nn(Cc4ccccc4F)c4ncccc34)nc(N)c21 [Example 100B] 1800

Request the reported EC50 associated with CC(C)(Cc1coc(C2(C)C(=O)Nc3nc(-c4nn(CCC(F)(F)C(F)(F)F)c5cc(Cl)ccc45)nc(N)c32)n1)C(=O)O (stereo not shown) 1060

Request the reported EC50 associated with CC(C)(Cc1csc([C@]2(C)C(=O)Nc3nc(-c4nn(Cc5c(F)cccc5F)c5cc(Cl)ccc45)nc(N)c32)n1)C(=O)O [Example 183A] 88

Further cases:
Request the reported EC50 associated with C[C@@]1(c2ccc(CCC(=O)O)cc2)C(=O)Nc2nc(-c3nn(Cc4cccc(F)c4)c4cc(Cl)ccc34)nc(N)c21 [Example 69B] 289

Request the reported EC50 associated with CC(C)(Cc1coc(C2(C)C(=O)Nc3nc(-c4nn(Cc5cccc(F)c5)c5cc(Cl)ccc45)nc(N)c32)n1)C(=O)O (stereo not shown) [Example 175A] 96
